# procedureText: NCI Yeast Anticancer Drug Screen. Data for the cln2 rad14 strain (AID 165);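 also: 0% = growth equal to vehicle treated cultures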
# conditionNotes: S. cerevisiae cln2 rad14 strain, at 50.0 µM, active compounds read high
This is part of a sample that, as a whole, favours compounds with a hit. Of some 79,000 tested, about 15% had one in any assay.
Can you tell me growth inhibition for the items I'm about to list?
Numbers only, in %.

CCOC(=O)C(C)CC(=O)C(C)CC(=O)C(C)C (configuration not stated)    -14.2
O=C(O)CCCCC1CCCC1    5.25
Cc1ccc(NC(=O)CC2C(=O)Nc3ccccc3S2(=O)=O)c(C)c1 (configuration not stated)    20.6
CN=C1SC(C)(C)NN1C    -32
CN=CN(C)c1c2ccccc2nc2ccccc12    10.7

Provide each entry's growth inhibition from the list below.
1. Nc1cccc(CNC(=O)COc2ccc(Cl)cc2C(=O)O)c1
2. N/N=C1/C(=N/O)CCc2nonc21
3. CCn1nnc2c(C(N)=O)ncn2c1=O

Response:
[-7.6, -8.3, 14.1]

Provide each entry's growth inhibition from the list below.
1. Cc1cc(C)c2nc3c(c(C(O)C4CCCCN4)c2c1)CC/C3=C\c1ccc(Cl)cc1 (configuration not stated)
2. Cc1ccc2oc(=O)c(C(=O)Nc3nc(C45CC6CC(CC(C6)C4)C5)cs3)cc2c1
3. CCCCCCCCCCCCCCCCCCNc1nc(=O)n(C2CC(O)C(COP(=O)(O)O)O2)cc1F (configuration not stated)
4. ON=C1c2cc(Cl)ccc2-c2ccc(Cl)cc21

Response:
-7.75
13
17
-40.8

---

# procedureText: NCI Yeast Anticancer Drug Screen. Data for the cln2 rad14 strain (AID 165);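 also: 0% = growth equal to vehicle treated cultures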
# conditionNotes: S. cerevisiae cln2 rad14 strain, at 50.0 µM, active compounds read high
About 79,000 compounds went through this panel and 15% of them were active in at least one assay; those are over-represented in the sample as a whole.
Can you tell me growth inhibition for the items I'm about to list?
One number for each entry, in %.

CC(=O)Nc1nc(Cl)c2cc[nH]c2n1    -10.3
CC(=O)C1=CN(Cc2ccccc2)C(O)CC1C(N)=O (stereo not given)    10.8
CC(=O)OC1Cc2ccccc2C1OC(C)=O (stereo not given)    -9.8
Cc1nn(C)c(=O)c2nn(-c3ccccc3)c(C)c12    14.3
Oc1ccccc1C=NCCCN=Cc1ccccc1O    15.5
CNC(=O)N(C)COC    -0.7

Provide each entry's growth inhibition from the list below.
1. COc1ccc(NC(C)=O)cc1Br
2. COC(=O)CCC(CCC(=O)OC)([N+](=O)[O-])[N+](=O)[O-]
3. O=C(NC(=S)c1ccccc1)Nc1ccccc1
4. O=Cc1sccc1NC(=O)c1ccccc1
5. O=C1c2ccccc2C(=O)C2CC(c3ccccc3)=CCC12 (stereo not given)

Response:
-16.8
-55.6
-8.85
-18.1
-35.6

Provide each entry's growth inhibition from the list below.
1. O=C(c1ccc(Cl)cc1)N(C(=S)N1CCN(c2ccccc2)CC1)c1ccccc1
2. c1ccc(CSc2ccc3ccccc3c2)cc1
3. Cc1ccc(N=Cc2cccs2)c(Br)c1
4. CCOC(=O)c1c(C)c2c(n1Cc1ccccc1)CCCC2=O
5. CCn1cc(C(=O)O)c(=O)c2ccc(-c3ccncc3)cc21
6. CCc1ccc(/C(C#N)=C/c2ccccc2Cl)cc1
7. CC1(c2nc3ccccc3[nH]2)CCC(C(=O)O)C(C)(C)O1 (stereo not given)

Response:
1. -6.3
2. -51.8
3. 6.4
4. 12.7
5. -7.85
6. 10.2
7. 15.6

Provide each entry's growth inhibition from the list below.
1. Cc1cccc(-c2cc(=O)c3cccnc3[nH]2)c1
2. COC(=O)/C(=N\N)C(C(=O)C(=O)Nc1nc(=S)[nH][nH]1)c1nc2ccc([N+](=O)[O-])cc2[nH]c1=O (stereo not given)
3. c1ccc(-c2oc3ccccc3c2-c2ccc(OCCN3CCCC3)cc2)cc1
4. CCCCC/C(=N\Nc1ccc([N+](=O)[O-])cc1[N+](=O)[O-])c1ccc(-c2ccccc2)cc1
5. CCOC(=O)c1c(C)c(C)n2c1NC(=O)C2
6. Nc1ccc(N)c(Cl)c1
7. O=c1[nH]c(=S)c2ncn(C3OC(CO)C(O)C3O)c2[nH]1 (stereo not given)
8. CCc1c(CNc2ccc(C(=O)NC(CC(=O)O)C(=O)O)cc2)ccc2nc(N)nc(N)c12 (stereo not given)

Response:
[4.05, 11.7, 99.3, 19.1, -36.8, 14.7, 4.4, 2.85]

Provide each entry's growth inhibition from the list below.
1. CCC(=O)C(CC)c1ccccc1 (stereo not given)
2. Cc1c(-c2ccccc2)c2ccccc2c2ccccc12
3. CC1(C)OC2C(COC(=O)c3ccc([N+](=O)[O-])cc3)OC(NC(=O)N(CCCl)N=O)C2O1 (stereo not given)
4. CN(C(=O)CCC(=O)O)c1ccccc1C(=O)O

Response:
1: 2.2; 2: 0.1; 3: -11.2; 4: -5.75

Provide each entry's growth inhibition from the list below.
1. O=CNc1cc([N+](=O)[O-])ccc1OCc1ccccc1
2. COc1cc2cccc(N=Cc3cccc(OC)c3OC(C)C)c2cc1OC
3. N#C/C(=C\C=C\c1ccccc1)C(N)=O
4. O=CC1=CCC2c3[nH]c4ccccc4c3CCN2C1 (stereo not given)
5. O=C(O)C(Cc1ccccc1)NS(=O)(=O)Cc1ccccc1 (stereo not given)

Response:
1: 4.6; 2: 16.1; 3: -7.45; 4: 27.2; 5: -4.9

Provide each entry's growth inhibition from the list below.
1. CN(C)Cc1[nH]c(=O)[nH]c(=O)c1O
2. Nc1ccc([N+](=O)[O-])c2ccccc12
3. OCC12OCC(O1)C(O)C(O)C2O (stereo not given)

Response:
1. -38.8
2. 10.8
3. -9.35

Provide each entry's growth inhibition from the list below.
1. Cc1cccc(C)c1N1C(=O)C(=O)C(c2nc3ccccc3s2)C(=Nc2cccc3c(=O)[nH][nH]c(=O)c23)C1=O (stereo not given)
2. CN1CCCC2C3=CC=C4CC(O)CCC4(C)C3CCC21C (stereo not given)
3. Cc1cc[n+](CC(=O)CCc2ccc(C(=O)C[n+]3ccc(C)cc3)cc2)cc1
4. CCC/C=N/NS(=O)(=O)c1ccc(C)cc1

Response:
23.2
14.5
-6.4
11.8

Provide each entry's growth inhibition from the list below.
1. CCOC(=O)CC1C(C)C(C)NC(C)C1C (stereo not given)
2. CCNc1ncnc2c1cnn2C
3. CSc1ccc(NC(=O)Nc2ccccc2C(F)(F)F)cc1

Response:
[12.1, -36, -9.85]
